Target: Gonadotropin-releasing hormone receptor (Homo sapiens, UniProt P30968)
Sequence (P30968 whole entry): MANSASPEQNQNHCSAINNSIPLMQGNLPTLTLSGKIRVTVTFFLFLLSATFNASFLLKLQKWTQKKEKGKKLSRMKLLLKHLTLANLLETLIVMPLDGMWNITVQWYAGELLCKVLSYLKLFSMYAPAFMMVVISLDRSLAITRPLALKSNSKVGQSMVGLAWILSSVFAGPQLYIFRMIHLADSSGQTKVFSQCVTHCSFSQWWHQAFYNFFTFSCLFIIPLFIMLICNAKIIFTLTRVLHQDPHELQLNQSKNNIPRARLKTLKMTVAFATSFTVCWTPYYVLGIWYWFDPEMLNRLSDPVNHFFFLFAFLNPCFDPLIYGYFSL
Assay: Antagonist activity at human GnRH receptor expressed in HEK293 cells as inhibition of GnRH-induced LH secretion by reporter gene assay
Square brackets hold non-standard residues; d marks the D form. Peptide text beside a SMILES is read from it. * marks the point of attachment. Dihydroorotyl(S) = O=C1C[C@@H](C(=O)*)NC(=O)N1; dPhe(4-NH2) = Nc1ccc(C[C@@H](N)C(=O)O)cc1; dPhe(4-Cl) = N[C@H](Cc1ccc(Cl)cc1)C(=O)O; Phe(4-NH2) = Nc1ccc(C[C@H](N)C(=O)O)cc1; d2Nal = N[C@H](Cc1ccc2ccccc2c1)C(=O)O; Lys(iPr) = CC(C)NCCCC[C@H](N)C(=O)O; d3Pal = N[C@H](Cc1cccnc1)C(=O)O; Methoxycarbamoyl = CONC(=O)*
Observation type: pIC50
// pIC50 is dimensionless: -log10 of concentration (M)

pIC50 lookup needed for CONC(=O)Nc1ccc(C[C@@H](NC(=O)[C@H](Cc2ccc(NC(=O)[C@@H]3CC(=O)NC(=O)N3)cc2)NC(=O)[C@H](CO)NC(=O)[C@@H](Cc2cccnc2)NC(=O)[C@@H](Cc2ccc(Cl)cc2)NC(=O)[C@@H](Cc2ccc3ccccc3c2)NC(C)=O)C(=O)N[C@@H](CC(C)C)C(=O)N[C@@H](CCCCNC(C)C)C(=O)N2CCC[C@H]2C(=O)N[C@H](C)C(N)=O)cc1 (Ac-[d2Nal][dPhe(4-Cl)][d3Pal]S[Phe(4-NH2)](Dihydroorotyl(S))[dPhe(4-NH2)](Methoxycarbamoyl)L[Lys(iPr)]P[dA]-NH2) , thanks.
9.29

pIC50 lookup needed for CCOCCOCCNC(=O)Nc1ccc(C[C@H](NC(=O)[C@H](CO)NC(=O)[C@@H](Cc2cccnc2)NC(=O)[C@@H](Cc2ccc(Cl)cc2)NC(=O)[C@@H](Cc2ccc3ccccc3c2)NC(=O)NCCOCCOCC)C(=O)N[C@H](Cc2ccc(NC(=O)NCCOCCOCC)cc2)C(=O)N[C@@H](CC(C)C)C(=O)N[C@@H](CCCCNC(C)C)C(=O)N2CCC[C@H]2C(=O)N[C@H](C)C(N)=O)cc1 , thanks.
8.59

pIC50 lookup needed for CONC(=O)NCC[C@@H](NC(=O)[C@@H](Cc1ccc(Cl)cc1)NC(=O)[C@@H](Cc1ccc2ccccc2c1)NC(C)=O)C(=O)N[C@@H](CO)C(=O)N[C@@H](Cc1ccc(NC(=O)NOC)cc1)C(=O)N[C@H](Cc1ccc(NC(=O)NOC)cc1)C(=O)N[C@@H](CC(C)C)C(=O)N[C@@H](CCCCNC(C)C)C(=O)N1CCC[C@H]1C(=O)N[C@H](C)C(N)=O , thanks.
8.83
